Target under test: E. coli DNA gyrase (Escherichia coli, UniProt P0AES4+P0AES6)
Construct: purchased Inspiralis, UK
Assay explanation: DNA gyrase supercoiling assay (E. coli)
Format: biochemical
Metric: pIC50
Field pIC50 (float): negative decimal logarithm of the concentration in molar.

O=c1oc2ccc(F)cc2c2cc(CNC3CCN(c4nccc5ncccc45)CC3)[nH]c12 [Compound 187]
6.72

Kindly state the measured pIC50 obtained for O=c1cc(NCCC[N+]2([O-])CCN(c3nccc4ccc(F)cc34)CC2)c2ccccc2o1 [Compound 105] with E. coli DNA gyrase (Escherichia coli, UniProt P0AES4+P0AES6).
4.94

Value wanted: pIC50 (E. coli DNA gyrase (Escherichia coli, UniProt P0AES4+P0AES6)) of entry O=c1nc(NCC(O)CN2CCN(c3nc(F)cc4ccc(F)cc34)CC2)c2cc(F)ccc2o1 (stereo not shown) [Compound 149]
7.00

----------
Target under test: E. coli Topoisomerase IV (Escherichia coli, UniProt P0AFI2+P20083)
Construct: purchased Inspiralis, UK
Sequence (P20083 whole entry): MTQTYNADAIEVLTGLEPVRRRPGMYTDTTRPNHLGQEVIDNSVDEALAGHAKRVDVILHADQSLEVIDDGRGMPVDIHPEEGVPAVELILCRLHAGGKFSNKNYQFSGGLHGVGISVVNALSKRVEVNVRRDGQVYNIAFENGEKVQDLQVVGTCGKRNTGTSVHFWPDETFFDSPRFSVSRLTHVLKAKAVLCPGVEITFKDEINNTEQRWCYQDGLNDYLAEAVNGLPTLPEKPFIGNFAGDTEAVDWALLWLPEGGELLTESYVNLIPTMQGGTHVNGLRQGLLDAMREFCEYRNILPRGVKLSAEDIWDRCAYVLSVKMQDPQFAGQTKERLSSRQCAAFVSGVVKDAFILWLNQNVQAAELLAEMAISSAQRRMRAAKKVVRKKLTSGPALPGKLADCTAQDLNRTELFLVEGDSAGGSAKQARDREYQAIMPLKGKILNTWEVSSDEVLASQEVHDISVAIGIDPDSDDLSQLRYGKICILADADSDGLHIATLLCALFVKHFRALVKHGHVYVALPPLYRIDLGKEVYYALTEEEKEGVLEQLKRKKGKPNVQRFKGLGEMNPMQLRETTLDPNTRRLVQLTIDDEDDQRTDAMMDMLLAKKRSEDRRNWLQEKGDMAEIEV
Sequence (P0AFI2 whole entry): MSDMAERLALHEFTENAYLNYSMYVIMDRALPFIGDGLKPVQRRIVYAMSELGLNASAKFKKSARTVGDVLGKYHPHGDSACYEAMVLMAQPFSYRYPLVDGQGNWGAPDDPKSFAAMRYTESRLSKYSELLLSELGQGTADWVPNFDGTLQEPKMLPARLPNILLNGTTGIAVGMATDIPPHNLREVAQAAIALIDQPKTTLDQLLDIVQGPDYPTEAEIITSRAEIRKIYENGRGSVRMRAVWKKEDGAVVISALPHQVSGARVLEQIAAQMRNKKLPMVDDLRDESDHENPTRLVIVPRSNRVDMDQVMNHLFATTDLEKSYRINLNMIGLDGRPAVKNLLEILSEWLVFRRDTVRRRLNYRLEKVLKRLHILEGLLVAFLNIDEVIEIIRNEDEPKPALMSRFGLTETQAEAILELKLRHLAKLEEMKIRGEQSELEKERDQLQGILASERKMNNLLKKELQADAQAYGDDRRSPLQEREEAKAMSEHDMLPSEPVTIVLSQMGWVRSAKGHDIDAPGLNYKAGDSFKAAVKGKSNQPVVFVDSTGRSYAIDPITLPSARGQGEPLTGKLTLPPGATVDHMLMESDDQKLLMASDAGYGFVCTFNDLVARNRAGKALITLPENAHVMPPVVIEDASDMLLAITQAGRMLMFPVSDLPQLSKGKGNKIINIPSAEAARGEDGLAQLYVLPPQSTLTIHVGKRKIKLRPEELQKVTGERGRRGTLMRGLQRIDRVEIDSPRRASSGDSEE
Assay explanation: Topoisomerase IV decatenation assay (E. coli)
Format: biochemical
Test parameters: E. coli; concentration-response curve, eight half-log concentrations 0.1 to 300 μM; read-out: IC50 Topo IV
Metric: IC50

Name the recorded IC50 for [O-][n+]1ccc2ccc(F)cc2c1Cl [Compound 100] .
10.2 µM

----------
Target under test: E. coli DNA gyrase (Escherichia coli, UniProt P0AES4+P0AES6)
Construct: purchased Inspiralis, UK
Assay explanation: DNA gyrase supercoiling assay (E. coli)
Format: biochemical
pIC50: −log10 of the molar value.
Binary call on pIC50: Condition met from 6 upward, Condition not met beneath that.

O=c1cc(N[C@H]2C[C@H](N3CCN(c4nccc5ccccc45)CC3)C2)c2ccccc2o1 [Compound 55]
Condition not met
O=c1cc(NCCCN2CCN(c3nccc4cccnc34)CC2)c2ccccc2o1 [Compound 61]
Condition not met
COc1ccc2ncc(C#N)c(N3CCC(NCc4cc5c([nH]4)c(=O)oc4ccc(F)cc45)CC3)c2n1 [Compound 195]
Condition met

Check if pIC50 >= 6 (inclusive). Item: O=c1nc(NCC(O)CN2CCN(c3nc(F)cc4ccc(OC(F)(F)F)cc34)CC2)c2cc(F)ccc2o1 (centres unmarked) [Compound 155]
Condition not met

State whether the measured pIC50 reaches 6, counting equality as reaching it, for O=c1cc(NCCCN2CCC(c3nccc4ccccc34)CC2)c2ccccc2o1 [Compound 109]
Condition not met

I'd appreciate it if you could say whether C[N+]1(CCCNc2cc(=O)oc3ccccc23)CCN(c2nccc3ccccc23)CC1 [Compound 124] has pIC50 at least equal to 6.
Condition not met

Hi team, for COc1ccc2ncc(F)c(N3CCC(NCc4cc5c([nH]4)c(=O)oc4ccc(F)cc45)CC3)c2n1 [Compound 192] , is the recorded pIC50 at or above 6?
Condition met

// inclusive: pIC50 at least 6? input: O=c1nc(NCC(O)CN2CCN(c3nccc4ccc(F)cc34)CC2)c2cc(F)ccc2o1 (centres unmarked) [Compound 148]
Condition met

----------
Target under test: S. aureus Topoisomerase IV (Staphylococcus aureus, UniProt P0C1S7+P0C1U9)
Construct: purchased Inspiralis, UK
Sequence (P0C1S7 whole entry): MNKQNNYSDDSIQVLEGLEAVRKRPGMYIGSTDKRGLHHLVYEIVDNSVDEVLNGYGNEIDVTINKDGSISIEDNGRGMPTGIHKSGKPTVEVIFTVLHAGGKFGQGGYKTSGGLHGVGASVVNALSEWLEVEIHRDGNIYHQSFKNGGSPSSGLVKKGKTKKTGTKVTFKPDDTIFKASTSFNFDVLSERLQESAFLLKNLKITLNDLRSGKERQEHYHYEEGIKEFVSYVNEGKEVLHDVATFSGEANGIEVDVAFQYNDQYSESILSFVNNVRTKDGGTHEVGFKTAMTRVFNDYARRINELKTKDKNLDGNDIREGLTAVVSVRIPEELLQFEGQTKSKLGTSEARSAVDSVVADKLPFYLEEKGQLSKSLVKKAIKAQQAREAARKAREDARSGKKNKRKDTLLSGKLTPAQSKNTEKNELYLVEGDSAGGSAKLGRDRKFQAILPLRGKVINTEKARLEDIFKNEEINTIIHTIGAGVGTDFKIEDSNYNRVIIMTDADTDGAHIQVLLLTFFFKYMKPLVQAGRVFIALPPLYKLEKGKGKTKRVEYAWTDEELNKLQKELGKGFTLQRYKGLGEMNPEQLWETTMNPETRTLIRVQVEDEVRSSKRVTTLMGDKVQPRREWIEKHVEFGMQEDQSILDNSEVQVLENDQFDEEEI
Sequence (P0C1U9 whole entry): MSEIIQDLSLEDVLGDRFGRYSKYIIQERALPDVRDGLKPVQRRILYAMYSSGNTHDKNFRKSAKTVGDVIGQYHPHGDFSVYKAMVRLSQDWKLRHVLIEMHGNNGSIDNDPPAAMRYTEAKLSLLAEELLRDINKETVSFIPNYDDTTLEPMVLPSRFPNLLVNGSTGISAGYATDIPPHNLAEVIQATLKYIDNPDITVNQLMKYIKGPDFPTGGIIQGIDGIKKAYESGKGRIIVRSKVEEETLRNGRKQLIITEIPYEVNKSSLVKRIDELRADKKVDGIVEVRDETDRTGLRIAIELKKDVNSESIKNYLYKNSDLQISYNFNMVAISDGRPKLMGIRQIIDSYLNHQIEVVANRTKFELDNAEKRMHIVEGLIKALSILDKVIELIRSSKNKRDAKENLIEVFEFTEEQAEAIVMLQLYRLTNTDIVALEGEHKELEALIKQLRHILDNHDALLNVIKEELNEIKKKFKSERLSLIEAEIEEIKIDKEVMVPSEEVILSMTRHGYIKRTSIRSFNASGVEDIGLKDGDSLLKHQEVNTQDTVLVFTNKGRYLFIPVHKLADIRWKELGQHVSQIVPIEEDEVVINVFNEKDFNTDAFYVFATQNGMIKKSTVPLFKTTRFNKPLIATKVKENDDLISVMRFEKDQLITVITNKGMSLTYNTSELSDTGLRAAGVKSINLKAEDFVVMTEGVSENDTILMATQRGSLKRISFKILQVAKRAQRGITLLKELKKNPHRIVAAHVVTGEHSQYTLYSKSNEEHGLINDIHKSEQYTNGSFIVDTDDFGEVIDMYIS
Assay explanation: Topoisomerase IV decatenation assay (S. aureus)
Assay type: biochemical
Test parameters: S. aureus; conc. 50 μM; n/a = not active; read-out: % inhibition Topo IV
Listing: inhibition at 50 µM of selected compounds
The reply should be a number in %, with the unit left off.

The following compounds have reported results that may help.
COc1ccc2nccc(N3CCC(NCc4cc5c([nH]4)c(=O)oc4ccc(F)cc45)CC3)c2n1
98
O=c1nc(NCC(O)CN2CCN(c3nccc4nccnc34)CC2)c2cc(F)ccc2o1 (stereo not drawn)
86
Fc1ccc2ccnc(N3CCN(CCNCc4cc5c(cn4)OCCC5)CC3)c2c1
50
COc1ccc2ncc(C#N)c(N3CCC(NCc4cc5c([nH]4)c(=O)oc4ccc(F)cc45)CC3)c2n1
100
O=c1cc(NCCNC2CCN(c3nccc4ccc(F)cc34)CC2)c2cc(F)ccc2o1
78
COC1CN(c2nccc3ccc(F)cc23)CCC1NCc1cc2c(=O)oc3ccccc3c2[nH]1 (stereo not drawn)
72

Fill blank: measured inhibition at 50 µM of the compound O=c1nc(NCC(O)CN2CCN(c3nc(F)cc4ccc(OC(F)(F)F)cc34)CC2)c2cc(F)ccc2o1 (stereo not drawn) is ____.
50

What value of measured inhibition at 50 µM is listed for `O=c1oc2ccccc2c2[nH]c(CNC3CCN(c4nccc5ccc(F)cc45)CC3)c(C(F)(F)F)c12` ?
61

Give its inhibition at 50 µM value. Item: O=c1nc(NCC(O)CN2CCN(c3nc(F)cc4ccc(F)cc34)CC2)c2cc(F)ccc2o1 (stereo not drawn)
100
